study_target: PI3Kγ (Homo sapiens, UniProt P48736)
Sequence (P48736 whole entry, species assumed): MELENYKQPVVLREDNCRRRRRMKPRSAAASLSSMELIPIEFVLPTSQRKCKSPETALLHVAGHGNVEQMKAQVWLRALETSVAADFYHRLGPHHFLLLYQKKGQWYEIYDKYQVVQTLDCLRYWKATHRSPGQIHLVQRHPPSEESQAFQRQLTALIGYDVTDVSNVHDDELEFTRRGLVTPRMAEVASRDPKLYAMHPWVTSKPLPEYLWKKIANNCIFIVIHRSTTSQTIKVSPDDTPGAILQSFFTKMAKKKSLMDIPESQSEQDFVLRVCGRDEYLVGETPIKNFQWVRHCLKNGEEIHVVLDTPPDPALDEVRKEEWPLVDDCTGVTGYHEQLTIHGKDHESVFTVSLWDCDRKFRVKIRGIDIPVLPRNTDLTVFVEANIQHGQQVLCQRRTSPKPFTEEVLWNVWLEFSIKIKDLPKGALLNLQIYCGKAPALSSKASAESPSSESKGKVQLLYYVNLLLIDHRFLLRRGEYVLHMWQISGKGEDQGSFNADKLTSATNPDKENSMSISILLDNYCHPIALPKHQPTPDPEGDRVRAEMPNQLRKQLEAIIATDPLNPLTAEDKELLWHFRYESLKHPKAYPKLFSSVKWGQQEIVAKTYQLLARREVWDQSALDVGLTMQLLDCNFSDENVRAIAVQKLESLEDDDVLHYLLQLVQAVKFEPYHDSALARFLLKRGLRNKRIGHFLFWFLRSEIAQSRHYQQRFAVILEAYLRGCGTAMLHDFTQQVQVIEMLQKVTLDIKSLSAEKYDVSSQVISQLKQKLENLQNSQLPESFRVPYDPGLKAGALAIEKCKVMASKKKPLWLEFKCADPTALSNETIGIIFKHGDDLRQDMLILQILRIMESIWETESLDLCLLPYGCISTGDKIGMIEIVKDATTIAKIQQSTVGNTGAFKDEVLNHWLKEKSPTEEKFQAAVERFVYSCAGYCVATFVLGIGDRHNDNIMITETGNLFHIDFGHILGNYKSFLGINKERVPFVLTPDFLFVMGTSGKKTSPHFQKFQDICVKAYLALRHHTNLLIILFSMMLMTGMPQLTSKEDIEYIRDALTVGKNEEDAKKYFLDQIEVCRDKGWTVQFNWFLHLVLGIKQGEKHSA
method_notes: PI3Kγ inhibitory activity (PI3-kinase HTRF assay, inhibition ratio)
Assay type: biochemical
conditions: 0.5 h, compound at 10 μmol/L; read-out: PI3Kg Inhibition Ratio % (10 μM)
measure_name: inhibition at 10 µM

Sample answers from the record:
In [3]: df
Out[3]:
                                   molecule  result
0  COc1cc(C2CCc3nc(NC(=O)Nc4ccccc4C(=O)NC(C)C)sc3C2)nc(OC)n1 (centres unmarked) [Compound I-60]   ≥ 95%
1  COc1cc(N2CCc3nc(NC(=O)Nc4ccccc4OCCC(C)(C)C(=O)O)sc3C2)nc(OC)n1 [Compound I-100]   ≥ 95%
2  Cc1nc(NC(=O)Nc2ccccc2C(=O)NC(C)C)sc1-c1ccc(S(C)(=O)=O)c(F)c1 [Compound I-127]   ≥ 95%
3  COc1cc(N2CCc3nc(NC(=O)Nc4ccccc4C(=O)NN4CCOCC4)sc3C2)nc(OC)n1 [Compound I-193]     92%

Noted inhibition at 10 µM for COc1cc(N2CCc3nc(NC(=O)Nc4cn(C)nc4C(=O)NC4CCOC4)sc3C2)nc(OC)n1 (centres unmarked) [Compound I-156] , tested on PI3Kγ (Homo sapiens, UniProt P48736): 80%

Noted inhibition at 10 µM for O=C(Nc1nc2c(s1)CN(c1ccnc(Cl)n1)CC2)Nc1ccccc1C(=O)NCCO [Compound I-99] , tested on PI3Kγ (Homo sapiens, UniProt P48736): ≥ 95%

Noted inhibition at 10 µM for COc1cc(N2CCc3nc(NC(=O)Nc4ccccc4C(=O)CC(C)C)sc3C2)nc(OC)n1 [Compound I-65] , tested on PI3Kγ (Homo sapiens, UniProt P48736): ≥ 95%

Noted inhibition at 10 µM for COc1cc(N2CCc3nc(NC(=O)Nc4ccccc4O)sc3C2)nc(OC)n1 [Compound I-177] , tested on PI3Kγ (Homo sapiens, UniProt P48736): 88%
